# measured.target: T1, human MSLN-R3 protein (Met487-Ser606 of NCBI AAH09272.1) expressed on HEK293T-hMSLN-R3 cells (human, UniProt Q13421 487-606)
# T1 construct: also called Region3
# T1 sequence (Q13421 495-614): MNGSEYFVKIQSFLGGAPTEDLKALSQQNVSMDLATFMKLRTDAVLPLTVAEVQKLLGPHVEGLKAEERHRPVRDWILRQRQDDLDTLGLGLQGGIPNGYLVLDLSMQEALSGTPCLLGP
# procedure.details: FACS on HEK293T-hMSLN-R3 cells
Quick reference for Maximum mean fluorescence intensity among some binders
quantity.kind: Maximum mean fluorescence intensity

binder="S009-F2.16.10 (antibody, human IgG1, kappa, V domains shown, human-murine chimeric antibody, human IgG1/kappa constant regions) VH: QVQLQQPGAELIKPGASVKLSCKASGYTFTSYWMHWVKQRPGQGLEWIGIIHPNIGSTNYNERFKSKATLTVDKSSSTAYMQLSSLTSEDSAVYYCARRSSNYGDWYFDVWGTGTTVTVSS VL: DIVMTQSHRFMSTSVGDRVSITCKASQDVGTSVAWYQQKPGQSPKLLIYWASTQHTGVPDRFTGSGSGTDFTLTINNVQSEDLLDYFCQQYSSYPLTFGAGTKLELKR" quantity_kind="Maximum mean fluorescence intensity" measurement=114
binder="S009-F2.13.3 (antibody, human IgG1, kappa, V domains shown, human-murine chimeric antibody, human IgG1/kappa constant regions) VH: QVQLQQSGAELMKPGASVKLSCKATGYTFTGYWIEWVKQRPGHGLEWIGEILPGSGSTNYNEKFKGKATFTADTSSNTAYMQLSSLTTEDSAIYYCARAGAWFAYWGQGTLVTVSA VL: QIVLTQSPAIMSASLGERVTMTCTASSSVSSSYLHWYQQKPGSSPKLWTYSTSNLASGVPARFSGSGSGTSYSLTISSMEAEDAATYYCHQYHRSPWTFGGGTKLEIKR" quantity_kind="Maximum mean fluorescence intensity" measurement=112
binder="S009-F2.23.12 (antibody, human IgG1, kappa, V domains shown, human-murine chimeric antibody, human IgG1/kappa constant regions) VH: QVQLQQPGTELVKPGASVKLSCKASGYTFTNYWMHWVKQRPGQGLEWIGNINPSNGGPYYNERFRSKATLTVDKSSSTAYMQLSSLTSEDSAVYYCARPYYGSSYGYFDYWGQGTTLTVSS VL: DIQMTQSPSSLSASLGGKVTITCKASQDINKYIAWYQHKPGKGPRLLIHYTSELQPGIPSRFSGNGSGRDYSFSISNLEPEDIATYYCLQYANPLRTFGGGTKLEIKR" quantity_kind="Maximum mean fluorescence intensity" measurement=3880
binder="S009-F2.39.3 (antibody, human IgG1, kappa, V domains shown, human-murine chimeric antibody, human IgG1/kappa constant regions) VH: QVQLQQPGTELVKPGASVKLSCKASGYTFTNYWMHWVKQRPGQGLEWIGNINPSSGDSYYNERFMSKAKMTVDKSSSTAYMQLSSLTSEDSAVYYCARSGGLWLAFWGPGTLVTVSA VL: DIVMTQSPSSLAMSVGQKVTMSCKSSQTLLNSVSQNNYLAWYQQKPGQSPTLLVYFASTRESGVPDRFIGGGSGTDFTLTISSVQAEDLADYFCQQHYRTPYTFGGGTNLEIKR" quantity_kind="Maximum mean fluorescence intensity" measurement=3290
